Test system: K4 kissing-loop RNA reporter;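 further: bound reporter read as fluorescence of individual clusters on recovered sequencing chips by microscopy, with normalized cluster intensities fitted with a binding model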
Assay: apparent KD of K4 kissing-loop reporter; higher = weaker reporter binding
Conditions: Eterna round: R107; input ligand: arginine 13.2 mM
value-type: apparent KD of K4 kissing-loop reporter (nM)
Expressed in nM, but write only the number.

Known apparent KD of K4 kissing-loop reporter results, listed for orientation:
1. AGGUUUUACGGAGGAUAUGCACUGAGGAGGAGAAUAUAGUGAUGUUAUAUAAGAGGAAGGAGAAGAGUAGAAGGCCGUGAGGUUU [SSFMNB.M] ... 130
2. CCGCUGUACUGCAUUAAGUGAUGUUUAGUGCAGGAUAUCUGGAAACAGAGAAGGGCAUGUACUCGACUUAGCCACUACAGCGGUU ... 123
3. AUGUCUGAUAGCAGUGAUGUUGCUUCGGAUACCAGACGCGAUCUUGUCCCUUGGCAGCUGACACGGCACGUGCUAGGUUAGAAGG [whbob_Ex_Theo_A_th75] ... 125
4. UGAUUUAACUGAAGGAGCGGCAAUAGAGAAGGAAAUAUAGUGAUGUUAUAUAAGAGAGAGAGCCAGGUAGGUCGCAGAGGGAGGA [ExArgB.F] ... 128
5. ACGACGCAUAGUGAUACCAGCUAUAUAUGAGUGAUGUUCUACCUAAAAUGGUAAUAAUUUAGCCCUUGGCAGCACUAUGCGUCAG [KL-SSTheoB4] ... 456
6. GCCGUACGCAUGGAUACCAGCGUACGUCACCUAGCAGUGAUGUUGCUAUUGCCACGUAAACGCCCUUGGCAGCCAUGCGUACGGC ... 448
7. UGAUACCAGACGGCCGCCACUCCCGUAAGUCAAAGACUUACGAAGAGAGUUUUUCAGUGAUGUUGGAGGACCGGGUCUGGUAUCU [FiskerMod 16 - Jieux - Exclusion - Tryptophan B] ... 618
8. UGUGGAGGAUAUGAUACCAGCAGUGAGAGAGAGGAAGUAUAGUGAUGUUAUAUGAGAGAAUGCCCUUGGCAGCGUAUGUAGUAGG [SSTheophylB.I] ... 210
9. ACUGGGUUGACGAAAGUCAACAAAUGAGAAGGAGCGCACGAAAGUGCAGGUAGGUCGCUCAUUCCAGUGAUGUUGGAUCACCAGA [#SwitchBubble 19 #K4Late] ... 456
10. GCUAAGGAGUGAUGUUCCAAGUGAUGUUAACGAGGACCGGUACGGCCGCCACUCGAUACGGCCGGACCGUAAGAUAAACUACAGC [Same State - Tryptophan A (Freestyle 6)] ... 182

Item under review: UGAUAGGACAGAAGGAGCGGAAGUGAUGUUUCCAAAAGGUAAGGUCGACAAAGUCGACCCUUCCAGGUAGGUCGCUGUCCUAUCU [ArgBX 11 #Palindromic #SwitchBubble #StaticStem] . Reported apparent KD of K4 kissing-loop reporter? 102

// repeat for AUUAUAAAGUCGGCCGCCACUGAGAGUAGUGAUGUUACUCUUUUCCUUUAGAUAUUAUAUUUUAUCAGGACCGGGACAUCUGAUU [JR_Nu_ExcTryptoB_Sub024] and report 126

---

System: MS2 coat protein
Test: apparent KD of MS2 coat protein; designed switch direction (-1 OFF switch, 1 ON switch): 1; higher = weaker reporter binding
Details: Eterna round: R95; input ligand: microRNA oligo, concentration not stated
Could you label it met if measured apparent KD of MS2 coat protein is 20 nM or higher, and not met otherwise?

1) UACAAUCUAUCUCAGGAUAUCAUGUCAAAGACAUGAGGAUCACCCAUGUACCAGGAAACUGGUUAUGAGAAGGGAGAUAGAUUGA [Mat - Same State 2 - Mod - D25] (puzzle: Same State 2) ... met

Can UUUAGUUGCGGGCAGGAUAUGUAUUAAAAUACAUGAGGAUCACCCAUGUGCGGGUGUAACACCCGACAGAAGGGCCAAUCGCGAC [Laonerce - 13] (puzzle: Same State 2) be said to have apparent KD of MS2 coat protein at or above 20 nM? met

---

Test system: MS2 coat protein
Experiment: apparent KD of MS2 coat protein; designed switch direction (-1 OFF switch, 1 ON switch): -1; higher = weaker reporter binding
Details: input ligand: microRNA oligo, concentration not stated
We begin with a simple list: items and their reported apparent KD of MS2 coat protein.
Write it as a number; the unit nM goes unstated.

Worked set:
1) GACAUGAGGAUCACCCAUGUAAGGGAUGAACUUCUGGGUAGCUAGGAUAUGGCUACAAAUGUGGACCAGAAGGAGCAUACCCUA [Didianveon] (Eterna round: R96, puzzle: Exclusion NG 3) ... 12.7
2) AAAUGCGAGCGAGGAUAUCAGAAAGGAAGUGUAUGAGAAGGCGCACCGCGGGUAUCCGGACAUGAGGAUCACCCAUGUAGGCUC [PowerStrip EXNG 1.28] (Eterna round: R96, puzzle: Exclusion NG 1) ... 17.8
3) CUACUGAAGCUUUGCUUUAGUCGUACAUGAGGAUCACCCAUGUAGGAUAUGGUAGGCUUUGCUUACUAGAAGGAUAGAGUGAUC [salish99_ExNG3_r04_601] (Eterna round: R96, puzzle: Exclusion NG 3) ... 38.3
4) AGCUGUGGCCGAGGAUAUCACGAACCAUGGAAAACCAUGGAAAUUCUACAUGAGGAUCACCCAUGUGAGAAGGCGGUCUCAGCA [Eli eng2 - 023] (Eterna round: R96, puzzle: Exclusion NG 2) ... 12.5

Can you look up the measured apparent KD of MS2 coat protein of GUCAGCUCGUGAGGAUAUACAUGAGGAUCACCCAUGUGAUCAAUAGCAGCUUCGGCUGCAUACAUGUAGAAGGCACGAGCUGAC [ENG2/6-A1] (Eterna round: R96, puzzle: Exclusion NG 2) for me? 19.7

Try this sequence too: UGUUUAUAUGAAGGAUAUACUUAACAUGAGGAUCACCCAUGUGGUGUUGUGAGUGAGUGAGUUUAGUAGAAGGUCAAUGAUUUU [JMF's solution 75] (Eterna round: R96, puzzle: Exclusion NG 2) 200

Then GAGUGACAUGAGGAUCACCCAUGUGAGGAUAUCGGACGGACCUAGUUAACUUCCGCCGCGAGAAGGCACAUCGG [Exclusion 1 V23] (Eterna round: R96, puzzle: Exclusion 1) ? 45.6

Subsequent entry: UUAAUUAAUGUAGGAUAUGCAAGGCGAACCUAAGCAGAAGGACAUGUGGAUCACCCAUGUAAUGCGGUCUGCGUACAGAUCGCU [salish99_ex1_NG1_001] (Eterna round: R96, puzzle: Exclusion NG 1) 1170

Same question, UUAUAACAUGUAGGAUAUGCGUGGCGAAGCUAUGCAGAAGGACAUGAGGAUCACCCAUGUUCCUGCGUCCGCGUACGGAUGCAA [JL Eng1 1.21 mod 1] (Eterna round: R96, puzzle: Exclusion NG 1) this time 14.1

---

Tested on: MS2 coat protein
Test: apparent KD of MS2 coat protein; higher = weaker reporter binding
Conditions: Eterna round: R107; input ligand: none
Examples of sequences with documented apparent KD of MS2 coat protein follow.
Report the value in nM with no unit label.

Would you please look over these solved cases?
1. AGAUGUAGCGGAAGGAGCGUCAUGAGGAUCACCCAUGGCUCCCGUUGUGGGAGUUCCUUAGGUCAGGUAGGUCGCCGUUACGUCA [Omei Arg B SS B v6] ... 359
2. ACGUAUGUCAGAAGGAGCGUCAAUAACAUGAGGAUCACCCAUGUAUUACAUAGGUAUAAUAGACAGGUAGGUCGCUGAAUUCGAA [JR_SSArginiB_Sub022] ... 29.2

API: the following record is the query input.
Give the measured apparent KD of MS2 coat protein of AAUUCCUCACAUGAGGAUCACCCAUGUGAAGGAGCGCCGAAUAAGGCAGGUAGGUCGCACAUGGAAACCGCUGCGAAAGCAGCAA [MAT - Exclusion Arginine A - Mod of Eli - D25] . 21.7

---

System: MS2 coat protein
Assay: apparent KD of MS2 coat protein; higher = weaker reporter binding
Conditions: Eterna round: R107; input ligand: tryptophan 2.4 mM
We begin with a simple list: items and their reported apparent KD of MS2 coat protein.
# value in nM; strip the unit string

1) GGGUGGUAGGCGGCCGCCACUGAUUUUUAUAUAUAUAUAACAUGAGGAUCACCCAUGUAGAUAUGCAGGACCGGGCCUGUUGUUU [aaaM] ... 28.3
2) UCGUCAGGCGCGGCCGCCACUGCGGUGAUGUGACAUGAGGAUCACCCAUGUUGUCAUGUGGCACAUAGGACCGGGUGCCUGGCGA [Exclusion - Tryptophan B Attempt #5 (HarryS)] ... 17.6
3) GGUUUGCGGCCUGAUACCAGUGAUGGAUGAACCCUAGUCAACAUGAGGAUCACCCAUGUUCACCCUUGGCAGCAGUGACGCUCGA [theeternabot_exclusion_MS2_Theo_B_34] ... 74.1

What apparent KD of MS2 coat protein appears in the records for this sequence with MS2 coat protein? GCUCGUUGCAUGGAUACCAGUUGAUAGGCCGCCUCCGGAUACAUGAGGAUCACCCAUGUCAACCCUUGGCAGCCACCCAAUAGGG [theeternabot_exclusion_MS2_Theo_B_27] 10.6

Proceed to UGUACAUAAUUAGGUUACCUAUGUACAGAAGGAGCGUCGAUGACGACAGGUAGGUCGCUGUUAACAUGAGGAUCACCCAUGUACA [Arg A Ex t4] 42.4

One more sequence: CCUGCUACGGGAAACCGUAGCAGGAAUGAUACCAGUAGGAAAGACUACCCUUGGCAGCAUGGGAAACAUGAGGAUCACCCAUGUU [SSThA NP+V+V2 #7 Same Structure] 50.8
